# system_under_test: T1, TgSlyDser-Her3
# T1 chain: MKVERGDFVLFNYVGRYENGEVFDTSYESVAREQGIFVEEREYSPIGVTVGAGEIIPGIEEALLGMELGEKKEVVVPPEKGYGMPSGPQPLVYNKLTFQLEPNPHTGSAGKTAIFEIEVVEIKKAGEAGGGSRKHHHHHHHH
# experiment_notes: ELISA, antigen coated, hybridoma supernatant
Assign Met to entries whose OD 405 nm meets or exceeds 2 OD; assign Not met to the rest.

anti-HER3 antibody M-43-01 (antibody, V domains shown, mouse hybridoma clone) VH: EVQLQQSGTVLARPGASVKMSCKASDYTFSNYWVHWVKQRPGQGLEWIGAIYPGNGDSTYYQKFKGKATLTAVTSTSTAYMDLSSLTNGDSAVYFCTRSGVGYNYYFDYWGQGTTLTVSS VL: DIQMTQSPASLSASVGETVTITCRASENIYSNLAWYQQKQGKSPQLLVYIATNLADGVPSRFSGSGSGTQFSLKINSLQPEDLGSYYCQHFYGTPFTFGTGTKLEIE
Met
anti-HER3 antibody M-17-07 (antibody, V domains shown, mouse hybridoma clone) VH: EVQLQQSGTVLARPGASVKMSCKASGYSFTSYWIHWVKQRPGQGLEWIGAIYPGNSDTTYNQKFKGKAKLTAVTSASTAYMELSSLTNEDSAVYYCARTGVWTSYYFDYWGQGTTLTVSS VL: DIQMTQSPASLSASVGETVTITCRASENIYSNLAWYQQKQGKSPQLLVYAATNLADGVPSRFSGSGSGTQFSLRINSLQPEDFGSYYCQHFYGTPFTFGTGTKLEIK
Not met
anti-HER3 antibody M-17-12 (antibody, V domains shown, mouse hybridoma clone; VH and VL stated identical to those of M-17-02) VH: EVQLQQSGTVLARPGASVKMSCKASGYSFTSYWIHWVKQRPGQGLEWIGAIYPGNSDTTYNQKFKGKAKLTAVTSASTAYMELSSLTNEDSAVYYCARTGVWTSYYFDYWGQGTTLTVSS VL: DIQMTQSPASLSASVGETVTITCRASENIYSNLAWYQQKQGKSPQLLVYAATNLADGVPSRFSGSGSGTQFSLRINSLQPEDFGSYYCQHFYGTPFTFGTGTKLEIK
Not met
anti-HER3 antibody M-08-11 (antibody, V domains shown, mouse monoclonal antibody from hybridoma, tested as hybridoma supernatant or as antibody; also called M-011) VH: QAYLQQSGAELMRPGASVRMSCQASGYTFTSYTIHWLKQTPRQGLEWIGAIYPRNGDFSYNQKFKDKASLTVDTSSSTAYMHLSSLTSEDSAVYFCARTINYGDWFAYWGQGTLVTVSA VL: DIQMIQSPASLFVSEGETVIITCRASENIYSNLAWYHQKKGKSPQVLVYAAIKLADGVPLRFSGSGSGTQFSLKINSLQSEDFGSYYCQHFWGPPYTFGSGTNLEIK
Met
anti-HER3 antibody M-17-02 (antibody, V domains shown, mouse hybridoma clone) VH: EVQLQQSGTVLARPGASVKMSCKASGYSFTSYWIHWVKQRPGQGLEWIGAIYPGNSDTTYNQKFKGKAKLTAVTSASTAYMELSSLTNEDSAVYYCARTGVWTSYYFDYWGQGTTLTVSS VL: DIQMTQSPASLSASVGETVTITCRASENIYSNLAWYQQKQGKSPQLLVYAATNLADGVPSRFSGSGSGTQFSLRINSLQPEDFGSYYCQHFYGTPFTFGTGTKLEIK
Not met
